src = patent US20190284243A1

Target: Beads modified with (2)
Test: Fluorescent β-bodies incubated with beads modified with (2)
Assay type: binding
Settings: bead-(2) with fluorescent β-body
parameter: Kd (nM)
Express the result in nM but write the number alone.

TFTFTFPGLTRTHT [SEQ ID NO: 59] = 5000

Now consider a different sequence.
What measured Kd goes with TYTYTYPGLTRTHT [SEQ ID NO: 57] ? 700
